Source: ChEMBL document CHEMBL2069299

Assay: Stability in human liver microsomes aunder NADPH generating system at 37 degC for 60 mins by LC-MS/MS method
Type: ADME, Microsome
Conditions: read-out: Stability
metric: remaining at 1 h (%)
Give your result in % as a bare value.

> print(dat)
                                   molecule            metric  recorded.number
1  CCOCCOCC(OC(=O)C1CCCC(NC(=O)NC23CC4CC(CC(C4)C2)C3)C1)c1ccccc1 (stereo not drawn)  remaining at 1 h               32
2  CCCCC(CC)OC(=O)CCCNC(=O)NC12CC3CC(CC(C3)C1)C2 (stereo not drawn)  remaining at 1 h                4
3  O=C(NC1CCCC(C(=O)O)C1)NC12CC3CC(CC(C3)C1)C2 (stereo not drawn)  remaining at 1 h               95

Please indicate remaining at 1 h recorded for CCCCC(CC)OC(=O)C1CCCC(NC(=O)NC23CC4CC(CC(C4)C2)C3)C1 (stereo not drawn)
10

Name the recorded remaining at 1 h of the item CCOCCOCC(OC(=O)CCCNC(=O)NC12CC3CC(CC(C3)C1)C2)c1ccccc1 (stereo not drawn) in your answer.
14

Indicate the recorded remaining at 1 h value for this molecule: O=C(O)CCCNC(=O)NC12CC3CC(CC(C3)C1)C2
97

Report remaining at 1 h, nothing else, for this molecule: CCOCCOCCOC(=O)CCCNC(=O)NC12CC3CC(CC(C3)C1)C2
10
